For each entry below, report its log10 of Ki value.
# Test Target: NK1 receptors (Homo sapiens)
# Construct: endogenous in cells; host or cells: IM9 cells (intact)
# Sequence (P25103 whole entry): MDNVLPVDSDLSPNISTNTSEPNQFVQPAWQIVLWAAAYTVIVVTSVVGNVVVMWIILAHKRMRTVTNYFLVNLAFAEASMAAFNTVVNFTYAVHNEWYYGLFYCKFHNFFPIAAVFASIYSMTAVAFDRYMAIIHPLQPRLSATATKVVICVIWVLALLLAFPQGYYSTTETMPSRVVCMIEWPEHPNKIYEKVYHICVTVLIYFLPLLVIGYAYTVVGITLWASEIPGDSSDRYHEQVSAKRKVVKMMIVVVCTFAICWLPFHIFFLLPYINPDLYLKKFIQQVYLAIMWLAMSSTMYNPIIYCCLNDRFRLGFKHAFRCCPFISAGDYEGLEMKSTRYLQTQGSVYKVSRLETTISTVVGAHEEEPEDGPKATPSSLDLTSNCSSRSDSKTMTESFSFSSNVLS
# Measurement Protocol: [^3 H]SP Binding Assay in IM9 Cell Line (competition)
# Measurement Conditions: read-out: Affinity (pKi) in the IM9 binding test (converted)
Parameter value (number): base-10 log of Ki in µM.

Here's what some known entries look like.
CN(Cc1ccccc1)C(=O)[C@H](Cc1ccc2ccccc2c1)NC(=O)C1(NC(=O)c2c[nH]c3ccccc23)CCCCC1 = -3.00
CN(Cc1ccccc1)C(=O)C(Cc1ccc2ccccc2c1)NC(=O)C1(NC(=O)c2ccccc2)CCCCC1 (stereo not drawn) = -1.80

For every record below, what is its log10 of Ki?
1. CN(Cc1ccccc1)C(=O)C(Cc1ccc2ccccc2c1)NC(=O)C1(NC(=O)c2ccc(Cl)cc2)CCCCC1 (stereo not drawn)
2. CN(Cc1ccccc1)C(=O)C(Cc1ccc2ccccc2c1)NC(=O)C1(NC(=O)c2ccc([N+](=O)[O-])cc2)CCCCC1 (stereo not drawn)
3. CN(Cc1ccccc1)C(=O)C(Cc1ccc([N+](=O)[O-])cc1)NC(=O)C1(NC(=O)c2c[nH]c3ccccc23)CCCCC1 (stereo not drawn)
4. COc1ccc(CC(NC(=O)C2(NC(=O)c3c[nH]c4ccccc34)CCCC2)C(=O)N(C)Cc2ccccc2)cc1 (stereo not drawn)

[-2.00, -2.30, -1.70, -0.10]

For every record below, what is its log10 of Ki?
1. CN(Cc1ccccc1)C(=O)C(Cc1ccccc1)NC(=O)C1(NC(=O)c2c[nH]c3ccccc23)CCCCC1 (stereo not drawn)
2. CN(Cc1ccccc1)C(=O)C(Cc1ccc(O)cc1)NC(=O)C1(NC(=O)c2c[nH]c3ccccc23)CCCCC1 (stereo not drawn)
3. CN(Cc1ccccc1)C(=O)C(Cc1ccc2ccccc2c1)NC(=O)C1(N(C)C(=O)c2cn(C)c3ccccc23)CCCCC1 (stereo not drawn)

1: -0.75; 2: -1.70; 3: -1.80

For every record below, what is its log10 of Ki?
1. COc1ccc(CC(NC(=O)C2(NC(=O)c3c[nH]c4ccccc34)CCCCC2)C(=O)N(C)Cc2ccccc2)cc1 (stereo not drawn)
2. CN(Cc1ccccc1)C(=O)C(Cc1ccc2ccccc2c1)NC(=O)C1(NC(=O)c2cc3ccccc3o2)CCCCC1 (stereo not drawn)

1. -2.40
2. -1.35

For every record below, what is its log10 of Ki?
1. O=C(Cc1ccccc1)NC(Cc1ccc2ccccc2c1)NC(=O)C1(NC(=O)c2c[nH]c3ccccc23)CCCCC1 (stereo not drawn)
2. CN(Cc1ccccc1)C(=O)C(Cc1ccc2ccccc2c1)NC(=O)C1(NC(=O)c2c[nH]c3ccccc23)CCCC1 (stereo not drawn)
3. CN(Cc1ccccc1)C(=O)C(Cc1ccc2ccccc2c1)NC(=O)C1(NC(=O)c2c[nH]c3ccccc23)CCOCC1 (stereo not drawn)
4. CN(Cc1ccccc1)C(=O)C(Cc1ccccc1)NC(=O)C1(NC(=O)c2c[nH]c3ccccc23)CCCC1 (stereo not drawn)
5. CN(C(=O)Cc1ccccc1)C(Cc1ccc2ccccc2c1)NC(=O)C1(NC(=O)c2c[nH]c3ccccc23)CCNCC1 (stereo not drawn)
6. CN(Cc1ccccc1)C(=O)C(Cc1ccc2ccccc2c1)NC(=O)C1(NC(=O)c2c[nH]c3ccccc23)CCNCC1 (stereo not drawn)
7. COc1ccc(C(=O)NC2(C(=O)NC(Cc3ccc4ccccc4c3)C(=O)N(C)Cc3ccccc3)CCCCC2)cc1 (stereo not drawn)

-1.80
-2.60
-2.20
-0.80
-1.90
-1.90
-1.70

For every record below, what is its log10 of Ki?
1. CN(Cc1ccccc1)C(=O)C(Cc1ccc2ccccc2c1)NC(=O)C1(NC(=O)c2ccc(Cl)c(Cl)c2)CCCCC1 (stereo not drawn)
2. CN(Cc1ccccc1)C(=O)C(Cc1ccc2ccccc2c1)NC(=O)C1(NC(=O)c2c[nH]c3ccccc23)CCSCC1 (stereo not drawn)
3. CN(Cc1ccccc1)C(=O)C(Cc1ccc2ccccc2c1)NC(=O)C1(NC(=O)c2cn(C)c3ccccc23)CCCCC1 (stereo not drawn)

1: -2.10; 2: -2.30; 3: -1.80
